The origin of these recorded values is paper PMC6930570.

biological target: bovine thrombin (Bos taurus, UniProt P00735); construct: purchased Sigma Chemical, Co. (St. Louis); test: In vitro inhibition of thrombin; format: biochemical; settings: substrate tosyl-Gly-Pro-Arg-pNA, no = no action under the experimental conditions, read-out: TH% 100 µM (thrombin inhibition)
Measured Attribute: inhibition at 100 µM (%)

{"columns": ["Molecule", "Measure Unit", "Numeric Result"],
 "data": [
  ["Cc1ccc(C=C2C(=O)c3ccccc3C2=O)o1", "%", 39],
  ["N=C(N)NCCCNC(=O)[C@@H]1CCCCN1C(=O)[C@@H](CC1CCCCC1)NCC(=O)O [Inogatran, reference compound]", "%", 98],
  ["CN(C)c1ccc(/C=C\\C=C2C(=O)c3ccccc3C2=O)cc1", "%", 19],
  ["O=C1C(=Cc2ccc(OCc3ccc(Br)cc3)cc2)C(=O)c2ccccc21", "%", 100]
]}

(1) CC(C)(C)c1cc(C=C2C(=O)c3ccccc3C2=O)c(O)c(C(C)(C)C)c1
(2) CC(C)(C)c1cc(C=C2C(=O)c3ccccc3C2=O)cc(C(C)(C)C)c1O
Q) Could you kindly indicate whether 1 or 2 has the higher inhibition at 100 µM value? Pick one and reply with its label.
A) 2
